- Test system: GLUT-1
- test description: Caco-2 monolayer efflux assay, Apparent Permeability (Papp), with or without GLUT-1 inhibitor phloretin
- Type: in vitro ADME, Human
- applied conditions: human, compound alone, read-out: Papp B → A
measured property: Papp B→A (×10⁻⁶ cm/s)

Q. Report Papp B→A from GLUT-1 testing of COc1ccc(-c2noc(CC(=O)OCC3OC(O)C(O)C(O)C3O)c2-c2ccc(OC)cc2)cc1 (centres unmarked) [GALMOF0]
A. 87.5

Q. Recall the reported Papp B→A of COc1ccc(-c2noc(CC(=O)NCCCCCCCCCCC(=O)OCC3OC(O)C(O)C(O)C3O)c2-c2ccc(OC)cc2)cc1 (centres unmarked) [GALMOF11] when tested on GLUT-1.
A. 77.2

###

measured property: melting point

Q. Look up melting point of COc1ccc(-c2noc(CC(=O)Nc3ccc(NC(=O)Cc4onc(-c5ccc(OC)cc5)c4-c4ccc(OC)cc4)cc3)c2-c2ccc(OC)cc2)cc1 and report it.
A. 178 to 182 °C

Q. Determine from records and report melting point for CCCCCCCCC(CCCNC(=O)Cc1onc(-c2ccc(OC)cc2)c1-c1ccc(OC)cc1)NC(=O)Cc1onc(-c2ccc(OC)cc2)c1-c1ccc(OC)cc1 (stereo not drawn)
A. 134 to 138 °C

Q. For COc1ccc(-c2noc(CC(=O)Nc3ccc(-c4ccc(NC(=O)Cc5onc(-c6ccc(OC)cc6)c5-c5ccc(OC)cc5)cc4)cc3)c2-c2ccc(OC)cc2)cc1 , write its melting point.
A. 240 to 243 °C

###

Here's a batch of compounds along with measured IC50 for ovine COX-2 (Ovis aries (Sheep), UniProt P79208).

Some compounds with recorded IC50:
Q. Name the value of IC50 reported for COc1ccc(-c2noc(CC(=O)NCCNC(=O)Cc3onc(-c4ccc(OC)cc4)c3-c3ccc(OC)cc3)c2-c2ccc(OC)cc2)cc1 [drawing 61] when tested on ovine COX-2 (Ovis aries (Sheep), UniProt P79208).
Sequence (P79208 17-603): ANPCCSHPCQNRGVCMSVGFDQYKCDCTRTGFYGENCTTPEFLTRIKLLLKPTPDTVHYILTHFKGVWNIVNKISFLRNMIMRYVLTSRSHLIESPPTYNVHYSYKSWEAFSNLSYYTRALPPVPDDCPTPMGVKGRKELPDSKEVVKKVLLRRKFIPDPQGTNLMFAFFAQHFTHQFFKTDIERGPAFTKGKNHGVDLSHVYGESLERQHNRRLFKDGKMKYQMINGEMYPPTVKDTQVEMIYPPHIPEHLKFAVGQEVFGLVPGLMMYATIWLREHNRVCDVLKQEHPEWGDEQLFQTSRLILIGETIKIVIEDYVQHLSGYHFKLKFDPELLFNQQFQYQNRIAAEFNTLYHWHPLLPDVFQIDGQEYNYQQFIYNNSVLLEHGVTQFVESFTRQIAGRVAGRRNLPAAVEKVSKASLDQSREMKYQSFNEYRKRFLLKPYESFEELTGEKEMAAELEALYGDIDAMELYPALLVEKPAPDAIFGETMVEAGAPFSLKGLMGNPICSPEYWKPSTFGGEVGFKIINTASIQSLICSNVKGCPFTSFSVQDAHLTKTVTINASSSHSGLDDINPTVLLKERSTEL
A. 0.12 µM

Q. State the measured IC50 (ovine COX-2 (Ovis aries (Sheep), UniProt P79208)) of COc1ccc(-c2noc(CC(=O)Nc3ccc(-c4ccc(NC(=O)Cc5onc(-c6ccc(OC)cc6)c5-c5ccc(OC)cc5)cc4)cc3)c2-c2ccc(OC)cc2)cc1 [drawing 66]
A. > 50 µM

Q. Provide IC50, tested on ovine COX-2 (Ovis aries (Sheep), UniProt P79208), for COc1ccc(-c2noc(CC(=O)NCCCCNC(=O)Cc3onc(-c4ccc(OC)cc4)c3-c3ccc(OC)cc3)c2-c2ccc(OC)cc2)cc1 [drawing 64] .
A. > 50 µM

Q. Enter recorded IC50 with ovine COX-2 (Ovis aries (Sheep), UniProt P79208) for COC(=O)CNC(=O)Cc1onc(-c2ccc(OC)cc2)c1-c1ccc(OC)cc1 here.
A. 4.4 µM

Further cases:
Q. Quote IC50 with test system ovine COX-2 (Ovis aries (Sheep), UniProt P79208) for COc1ccc(-c2noc(CC(=O)O)c2-c2ccc(OC)cc2)cc1 [drawing 42, reference compound]
A. > 50 µM

Q. Please indicate recorded IC50 of COc1ccc(-c2noc(CC(=O)OCC3OC(O)C(O)C(O)C3O)c2-c2ccc(OC)cc2)cc1 (stereo not drawn) [drawing 44] measured with ovine COX-2 (Ovis aries (Sheep), UniProt P79208).
A. 0.7 µM

Q. Name the recorded IC50 of CCCCC/C=C\C/C=C\C/C=C\C/C=C\CCCC(=O)Nc1ccc(NC(=O)Cc2onc(-c3ccc(OC)cc3)c2-c2ccc(OC)cc2)cc1 , assay system ovine COX-2 (Ovis aries (Sheep), UniProt P79208).
A. > 50 µM

Q. Look up and report IC50, with ovine COX-2 (Ovis aries (Sheep), UniProt P79208) as system, for COc1ccc(-c2noc(CC(=O)NCCCCCCNC(=O)Cc3onc(-c4ccc(OC)cc4)c3-c3ccc(OC)cc3)c2-c2ccc(OC)cc2)cc1
A. > 50 µM

Q. Specify IC50 for COc1ccc(-c2noc(CC(=O)Nc3ccc(NC(=O)Cc4onc(-c5ccc(OC)cc5)c4-c4ccc(OC)cc4)cc3)c2-c2ccc(OC)cc2)cc1 [drawing 65] , system ovine COX-2 (Ovis aries (Sheep), UniProt P79208).
A. > 50 µM
